tested on: Drosophila S2 cl14 SmoIP sensor cells; assay: normalized SmoIP GFP fluorescence (untreated unstimulated = 0%, untreated Hh-stimulated = 100%); higher = more Smo activation sensor fluorescence; details: stimulation: Hh conditioned medium (+Hh); compound concentration: 2 uM; 24 h
property: normalized SmoIP GFP fluorescence (%)
Give bare numbers, in %.

# count of solved cases: 4
Cc1cc(Nc2ncc(Cl)c(Nc3ccccc3S(=O)(=O)C(C)C)n2)c(OC(C)C)cc1C1CCNCC1    113
COc1cc(N2CCC(N)CC2)ccc1Nc1ncc(Cl)c(-c2c[nH]c3ccccc23)n1    113
Nc1ccc2ncnc(NCCc3ccc(Oc4ccccc4)cc3)c2c1    45.5
CNC(=O)c1cc(Oc2ccc(NC(=O)Nc3cc(C(C)(C)C)nn3-c3ccc4ncccc4c3)c(F)c2)ccn1    183

For the next question, use this compound.
For the compound shown here, C=CC(=O)Nc1cccc(Nc2nc(Nc3ccc(OCCOC)cc3)ncc2F)c1 , give the reported normalized SmoIP GFP fluorescence.
116

----------
I'd appreciate it if you could supply normalized SmoIP GFP fluorescence values for the items below.
tested on: Drosophila S2 cl14 SmoIP sensor cells; test: normalized SmoIP GFP fluorescence (untreated unstimulated = 0%, untreated Hh-stimulated = 100%); higher = more Smo activation sensor fluorescence; settings: stimulation: mock conditioned medium (-Hh); compound concentration: 2 uM; 24 h;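 further: flow cytometry read-out as median GFP intensity of gated cells, compounds added 30 min before Hh-conditioned or mock medium, mock-treated cells serving as unstimulated baseline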
Where a name gives a salt, the structure may show the parent alone.
Answer with the value and then the unit.

Please report normalized SmoIP GFP fluorescence for every entry that follows.
1. N#Cc1c(Oc2ccc(F)c(NC(=O)Cc3cccc(C(F)(F)F)c3)c2)ccc2nc(NC(=O)C3CC3)sc12
2. Cc1ccc(Sc2ccccc2N2CCNCC2)c(C)c1
3. Nc1ncnc2c1c(-c1cccc(OCc3ccccc3)c1)cn2C1CC(CN2CCCC2)C1 (configuration not stated)
4. C#C[C@]1(OC(C)=O)CC[C@H]2[C@@H]3CCC4=C[C@@H](OC(C)=O)CC[C@@H]4[C@H]3CC[C@@]21C [ethynodiol-diacetate]
5. Fc1cc(-c2cccc3ncc(-c4cnn(C5CCNCC5)c4)nc23)cc(F)c1CN1CCOCC1
6. O=C(Nc1ccc(-c2ccnc(Nc3ccc(N4CCOCC4)cc3)n2)cc1)C1CCCN1 (configuration not stated)

["-0.889%", "-11.4%", "5.45%", "-1.63%", "-4.08%", "2.12%"]

Answer for every listed entry: what is its normalized SmoIP GFP fluorescence? The entries follow.
1. O=C(NC1CCOCC1)c1ccc(-c2cc(-c3c[nH]nc3-c3ccccn3)ccn2)cc1
2. COc1c(C)c2c(c(O)c1C/C=C(\C)CCC(=O)OCCN1CCOCC1)C(=O)OC2 [Mycophenolate-mofetil-(CellCept)]
3. C[C@H]1[C@H](C)CC[C@]2(C(=O)O)CC[C@]3(C)C(=CC[C@@H]4[C@@]5(C)C[C@@H](O)[C@H](O)[C@@](C)(CO)[C@@H]5CC[C@]43C)[C@H]12 [Asiatic-acid]
4. CC1(COc2ccc3c(c2)ncn3-c2ccc3cccc(N4CCC(N)CC4)c3n2)COC1

-1.38%
5.98%
-15.4%
77.9%

// batch mode: one normalized SmoIP GFP fluorescence value per listed entry
1. O=C(Nc1c(Cl)cncc1Cl)c1ccc(OC(F)F)c(OCC2CC2)c1 [Roflumilast(Daxas)]
2. COc1ccc(NS(=O)(=O)c2sc3ccc(Cl)cc3c2C)cc1N1CCNCC1
3. CCN(CC)CCOC(=O)c1ccc(N)cc1 [procaine-novocaine-hcl]
4. COc1cc2c(cc1Cc1cccc(Cl)c1F)c(=O)c(C(=O)O)cn2[C@H](CO)C(C)C [Elvitegravir]

["-8.23%", "2.86%", "-3.5%", "-9.22%"]

Dear colleague, could you please provide normalized SmoIP GFP fluorescence for the molecules listed below?
1. COc1cccc(Nc2c(C(N)=O)cnc3c(C)cc(S(=O)(=O)c4cccc(C(=O)N(C)C)c4)cc23)c1
2. COC1CCN(C(=O)c2cc(Cc3n[nH]c(=O)c4ccccc34)ccc2F)CC1
3. COC(=O)N[C@@H](C)CNc1nccc(-c2cn(C(C)C)nc2-c2cc(Cl)cc(NS(C)(=O)=O)c2F)n1

1. -16.1%
2. -3.5%
3. 48.8%

Reference for the values: the supplement of paper PMC5662767
